system: DC3F/AD; assay: In vitro activity in DC-3F/AD cell line Ratio of IC50(actinomycin D alone) / IC50(actinomycin D + modulator) at a concentration of 10 uM
recorded-metric: Fold reversion
Keep the answer to the number alone.

For the compound "C=CCNc1nc(NCC)nc(N2CCC(NCC3c4ccccc4CCc4ccccc43)CC2)n1" , give its reported Fold reversion.
10684

Supply measured Fold reversion of "C=CCNc1nc(NCC=C)nc(N2CCC(NCC(c3ccccc3)c3ccccc3)CC2)n1" in your reply.
1540

Provide one value: measured Fold reversion of C=CCNc1nc(NCC=C)nc(N2CCC(NCC3c4ccccc4COc4ccccc43)CC2)n1 (stereo not given)
5344

Give the reported value of Fold reversion for this record: "C=CCNc1nc(NCC=C)nc(N2CCC(NC(c3ccc(F)cc3)c3ccc(F)cc3)CC2)n1"
1212

Recall and state the measured Fold reversion for "C=CCNc1nc(NCCC)nc(N2CCC(NCC(c3ccccc3)c3ccccc3)CC2)n1" .
2356

* * *

For each record, write down the corresponding Viability.
tested on: KB; assay: Percent of cell viability remaining after incubating the cells with the modulator alone; assay type: functional, Homo sapiens; set-up: concentration or dose not given beside the values
Quick reminder: number only, in %, skip the unit.

Fill in: Viability on KB, entry "C=CCNc1nc(NCC=C)nc(NCC2CCN(C3c4ccccc4CCc4ccccc43)CC2)n1"
97

Find the measured Viability of "C=CCNc1nc(NCC=C)nc(NC2CCN(C(c3ccc(F)cc3)c3ccc(F)cc3)CC2)n1" with KB as test system.
40

Check KB data and give Viability for C=CCNc1nc(NCC)nc(N2CCC(NCC3c4ccccc4COc4ccccc43)CC2)n1 (centres undefined) .
101

With KB as the test system, provide measured Viability for this molecule: "C=CCNc1nc(NCCC)nc(N2CCC(NCC(c3ccccc3)c3ccccc3)CC2)n1"
93

Answer with Viability of C=CCNc1nc(NCC=C)nc(N2CCC(NCC(c3ccc(F)cc3)C3CCCCC3)CC2)n1 (centres undefined) measured for KB.
71

Report value: Viability, system: KB, molecule: "C=CCNc1nc(NCC=C)nc(NCC2CCN(CC3c4ccccc4CCc4ccccc43)CC2)n1"
53

// fetch Viability for "C=CCNc1nc(NCC=C)nc(N2CCC(NCC3c4ccccc4C=Cc4ccccc43)CC2)n1" ; system: KB
31

Output reported Viability of the molecule "C=CCNc1nc(NCC=C)nc(N2CCC(NCCC(c3ccc(OC)c(OC)c3)c3ccc(OC)c(OC)c3)CC2)n1" on KB.
100

Please tell me the measured Viability for "C=CCNc1nc(OC)nc(N2CCC(NCC3c4ccccc4CCc4ccccc43)CC2)n1" ; system: KB.
91

Provide Viability, system KB, entry C=CCNc1nc(NCC=C)nc(N2CCC(NCC(c3cc(OC)cc(OC)c3)c3ccccc3C)CC2)n1 (centres undefined)
91

Write down the reported Viability (system: KB) of C=CCNc1nc(NCC=C)nc(N2CCC(NCC3c4ccccc4COc4ccccc43)CC2)n1 (centres undefined)
106

GET Viability | system: KB | item: "C=CCNc1nc(NCC=C)nc(N2CCC(NCC(c3ccc(F)cc3)c3ccc(F)cc3)CC2)n1"
75

Please indicate recorded Viability of COc1ccc(CCN(C)CCCC(C#N)(c2ccc(OC)c(OC)c2)C(C)C)cc1OC (centres undefined) measured with KB.
75

State Viability on KB. Entry: "C=CCNc1nc(NCC=C)nc(N2CCN(CC3c4ccccc4CCc4ccccc43)CC2)n1"
121

With KB as the test system, provide measured Viability for this molecule: "C=CCNc1nc(NCC=C)nc(N2CCC(NCC3c4ccccc4-c4ccccc43)CC2)n1"
42

Give the observed Viability of "C=CCNc1nc(NCC=C)nc(N2CCC(NCC3c4ccccc4CCCc4ccccc43)CC2)n1" for KB.
89

Lab note: record Viability of C=CCNc1nc(NC)nc(N2CCC(NCC3c4ccccc4COc4ccccc43)CC2)n1 (centres undefined) tested on KB.
107

With KB as the test system, provide measured Viability for this molecule: "CN(C)c1nc(N(C)C)nc(N2CCC(NCC3c4ccccc4CCc4ccccc43)CC2)n1"
28

State recorded Viability with KB, entry "C=CCNc1nc(NCC=C)nc(N2CCC(CNC3c4ccccc4CCc4ccccc43)CC2)n1" , no comment.
105

* * *

test system: DC3F/AD; assay: Percent of cell viability remaining after incubating the cells with the modulator alone a concentration of 5 uM; assay type: functional, Cricetulus griseus
Viability below 80% gives -1; Viability at or above it gives 1.

Test whether the compound "C=CCNc1nc(NCC=C)nc(N2CCC(NCC(c3c(C)cccc3C)c3c(C)cccc3C)CC2)n1" records Viability of 80% or higher.
1

Is Viability for "C=CCNc1cc(N2CCC(NCC(c3ccccc3)c3ccccc3)CC2)nc(NCC=C)n1" at or above 80%?
-1

Check the entry C=CCNc1nc(NCC=C)nc(N2CCC(NCC3c4ccccc4CCc4cc(OC)ccc43)CC2)n1 (centres undefined) : does Viability equal or exceed 80%?
-1

Answer whether Viability of "C=CCNc1nc(NCC=C)nc(N2CCN(CCC(c3ccccc3)c3ccccc3)CC2)n1" is greater than or equal to 80%.
-1

Hi, just wondering whether C=CCNc1nc(NCC=C)nc(N2CCC(NCC3c4ccccc4NC(=O)c4ccccc43)CC2)n1 (centres undefined) shows Viability of 80% or higher.
1

Hi, just wondering whether "C=CCNc1nc(NCC)nc(N2CCC(NCC3c4ccccc4CCc4ccccc43)CC2)n1" shows Viability of 80% or higher.
1

Please indicate if the recorded Viability for "C=CCNc1nc(NCC=C)nc(NCCN2CCC(NC3c4ccccc4CCc4ccccc43)CC2)n1" meets or exceeds 80%.
-1

Kindly determine if Viability recorded for "C=CCNc1nc(NCC=C)nc(N2CCC(NCC3c4ccccc4C=Cc4ccccc43)CC2)n1" is above or exactly 80%.
1

Is Viability for "C=CCNc1nc(NCC=C)nc(N2CCN(C3c4ccccc4CCc4ccccc43)CC2)n1" at or above 80%?
1

Check if Viability >= 80% (inclusive). Item: "C=CCNc1nc(NCC=C)nc(N2CCC(NCCC(c3ccccc3)c3ccccc3)CC2)n1"
-1

Threshold query (Viability >= 80%) on "C=CCNc1nc(NCC=C)nc(N2CCC(SC(c3ccccc3)c3ccccc3)CC2)n1"
1

Hi, just wondering whether "C=CCN(CC=C)c1nc(N(CC=C)CC=C)nc(N2CCC(NCC(c3ccccc3)c3ccccc3)CC2)n1" shows Viability of 80% or higher.
-1

Does the compound C=CCNc1nc(NCC=C)nc(N2CCC(NCC3c4ccccc4CSc4ccccc43)CC2)n1 (centres undefined) have recorded Viability that is 80% or more?
1

State whether the measured Viability reaches 80%, counting equality as reaching it, for "C=CCNc1nc(NCCC)nc(N2CCC(NCC(c3ccccc3)c3ccccc3)CC2)n1"
-1

Hi team, for C=CCNc1nc(NCC=C)nc(N2CCC(NCC(c3ccccc3)S(=O)(=O)c3ccccc3)CC2)n1 (centres undefined) , is the recorded Viability at or above 80%?
1

Please check the record "C=CCNc1nc(NCC=C)nc(N2CCN(NCC3c4ccccc4CCc4ccccc43)CC2)n1" and state if its Viability is at or above 80%.
1

* * *

test system: DC3F/AD; experiment: Increase in adriamycin uptake in modulator-treated cells relative to untreated cells at a concentration of 10 uM; type: functional, Cricetulus griseus
recorded-metric: Increase
Number only, please.

Give the reported Increase for this molecule. "C=CCNc1nc(NCC)nc(N2CCC(NCC3c4ccccc4CCc4ccccc43)CC2)n1"
24.9

For the molecule C=CCNc1nc(NCC=C)nc(N2CCC(NCC(c3ccccc3)S(=O)(=O)c3ccccc3)CC2)n1 (centres undefined) , give its measured Increase value.
29

Write down Increase measured for item "C=CCNc1nc(NCC=C)nc(N2CCC(N(C)CC3c4ccccc4CCc4ccccc43)CC2)n1"
21.8

Tell us which Increase value is on record for C=CCNc1nc(NCC)nc(N2CCC(NCC3c4ccccc4COc4ccccc43)CC2)n1 (centres undefined)
21.8

Provide one value: measured Increase of "C=CCNc1nc(NCC=C)nc(N2CCN(C3c4ccccc4CCc4ccccc43)CC2)n1"
19.3

Query Increase for "C=CCNc1nc(NCC=C)nc(N2CCN(NCC3c4ccccc4CCc4ccccc43)CC2)n1"
28.2

Hello, please tell me recorded Increase for this one: "C=CCNc1nc(OC)nc(N2CCC(NCC3c4ccccc4CCc4ccccc43)CC2)n1"
28.5

Name the recorded Increase of the item "C=CCNc1nc(NCC=C)nc(NCCN2CCC(NC3c4ccccc4CCc4ccccc43)CC2)n1" in your answer.
18.3

Tell me its Increase given "C=CCNc1nc(Cl)nc(N2CCC(NCC3c4ccccc4CCc4ccccc43)CC2)n1" as the entry.
27.5

* * *

tested on: DC3F/AD; assay: Percent of cell viability remaining after incubating the cells with the modulator alone a concentration of 5 uM; assay type: functional, Cricetulus griseus
Please note: Viability exactly at 80% is class 0. Only values below 80% get class 1.

Decide: Viability of "C=CCNc1nc(N)nc(N2CCC(NCC3c4ccccc4CCc4ccccc43)CC2)n1" strictly below 80%?
class 0

Could you please tell me whether Viability recorded for "C=CCNc1nc(NCC=C)nc(N2CCC(OC(c3ccc(F)cc3)c3ccc(F)cc3)CC2)n1.Cl" is less than 80%?
class 1

Is 80% strictly greater than the molecule's reported Viability? molecule: "C=CCNc1nc(OC)nc(N2CCC(NCC3c4ccccc4CCc4ccccc43)CC2)n1"
class 0

Find out if reported Viability for "C=CCNc1nc(NCC=C)nc(N2CCC(NCCC(c3ccc(OC)c(OC)c3)c3ccc(OC)c(OC)c3)CC2)n1" is less than 80%
class 0

A record lists C=CCNc1nc(NCC)nc(N2CCC(NCC3c4ccccc4COc4ccccc43)CC2)n1 (configuration not stated) . Is its Viability below 80%?
class 1

Threshold test, Viability < 80%: "C=CCNc1nc(NCC=C)nc(N2CCC(NCC34CCC(c5ccccc53)c3ccccc34)CC2)n1"
class 0

Confirm or reject: Viability of COc1ccc(CCN(C)CCCC(C#N)(c2ccc(OC)c(OC)c2)C(C)C)cc1OC (configuration not stated) lies strictly below 80%
class 1

Below 80% on Viability? Entry "C=CCNc1nc(NCC=C)nc(N2CCC(NCC3c4ccccc4Oc4ccccc43)CC2)n1"
class 0

Answer whether the molecule "C=CCNc1nc(NCC=C)nc(NCCN2CCC(NCC3c4ccccc4CCc4ccccc43)CC2)n1" has Viability strictly less than 80%
class 1

I wonder whether "C=CCNc1nc(NCC=C)nc(N2CCC(N(C)CC(c3ccccc3)c3ccccc3)CC2)n1" has Viability below 80%. Can you tell?
class 0

Take the molecule "C=CCNc1nc(NCC=C)nc(N2CCC(NCC3c4ccccc4CCc4ccccc43)CC2)n1" and say whether its Viability is less than 80%.
class 0

Consider the molecule C=CCNc1nc(NCC=C)nc(N2CCC(NC3CC4c5ccccc5C3c3ccccc34)CC2)n1 (configuration not stated) . Is its Viability strictly less than 80%?
class 0

Is the reported Viability for "C=CCNc1nc(NCC=C)nc(N2CCC(NC(c3ccc(F)cc3)c3ccc(F)cc3)CC2)n1" strictly below 80%?
class 1

Input C=CCNc1nc(NC)nc(N2CCC(NCC3c4ccccc4COc4ccccc43)CC2)n1 (configuration not stated) ; condition: Viability strictly below 80%. Does it hold?
class 1

is_below(Viability, 80%) for "CN(C)c1nc(N(C)C)nc(N2CCC(NCC3c4ccccc4CCc4ccccc43)CC2)n1" ?
class 1

Please check: Viability for C=CCNc1nc(NCC=C)nc(N2CCC(NCC3c4ccccc4CS(=O)(=O)c4ccccc43)CC2)n1 (configuration not stated) , strictly under 80% or not?
class 0

Given the entry "C=CCNc1nc(NCC=C)nc(N2CCC(NC3c4ccccc4CCc4ccccc43)CC2)n1" , would its reported Viability be below 80%?
class 0

Find out if reported Viability for "C=CCNc1cc(N2CCC(NC(c3ccc(F)cc3)c3ccc(F)cc3)CC2)nc(NCC=C)n1.Cl.Cl" is less than 80%
class 1

Problem: For the molecule "C=CCNc1nc(NCC=C)nc(NCC2CCN(CC3c4ccccc4CCc4ccccc43)CC2)n1" , is Viability under 80%?
class 1

Please check: Viability for "C=CCNc1nc(NCC=C)nc(N2CCC(SCCC(c3ccccc3)c3ccccc3)CC2)n1" , strictly under 80% or not?
class 0

Hello, is Viability of the following molecule strictly smaller than 80%? C=CCNc1nc(NCC=C)nc(N2CCC(NCC3c4ccccc4N(C)S(=O)(=O)c4cc(Cl)ccc43)CC2)n1 (configuration not stated)
class 0

Threshold test, Viability < 80%: "C=CCNc1nc(NCC=C)nc(N2CCN(NC(=O)C3c4ccccc4CCc4ccccc43)CC2)n1"
class 0

Lab note: Viability threshold 80%. Does this molecule come in strictly under it? "C=CCNc1nc(NCC=C)nc(N2CCC(N(CC)C(c3ccc(F)cc3)c3ccc(F)cc3)CC2)n1"
class 1

API: query returns whether the molecule falls strictly under 80% in Viability. Query: C=CCNc1nc(NCC=C)nc(N2CCC(NC(c3ccccc3)c3ccc(F)cc3)CC2)n1.Cl (configuration not stated)
class 1

Just wondering, is Viability of "C=CCNc1nc(NCC=C)nc(N2CCC(NCC3c4ccccc4CCCc4ccccc43)CC2)n1" below 80%?
class 0

Please check: Viability for "C=CCNc1nc(NCC=C)nc(N2CCC(CNC3c4ccccc4CCc4ccccc43)CC2)n1" , strictly under 80% or not?
class 0

Record "C=CCNc1nc(NCC=C)nc(N2CCC(NCC(c3ccccc3)c3ccccc3)CC2)n1" : is its Viability strictly below 80%?
class 0

# TODO verify Viability < 80% strictly for this molecule: "C=CCNc1nc(NCC=C)nc(N2CCN(CCCC(c3ccc(F)cc3)c3ccc(F)cc3)CC2)n1"
class 1

Take the molecule "C=CCNc1nc(NCC=C)nc(NC2CCN(C(c3ccc(F)cc3)c3ccc(F)cc3)CC2)n1" and say whether its Viability is less than 80%.
class 1

Report whether reported Viability is lower than 80% (strictly) for "C=CCNc1nc(Cl)nc(N2CCC(NCC3c4ccccc4CCc4ccccc43)CC2)n1"
class 0

In plain terms, does "C=CCNc1nc(NCC=C)nc(NCC2CCN(C3c4ccccc4CCc4ccccc43)CC2)n1" come in under 80% for Viability?
class 1

Please let me know if "C=CCNc1nc(NCC=C)nc(N2CCC(NCC(c3ccccc3)(c3ccccc3)c3ccccc3)CC2)n1" shows Viability below 80%.
class 1

Below 80% on Viability? Entry "C=CCNc1nc(NCC=C)nc(N2CCN(CC3c4ccccc4CCc4ccccc43)CC2)n1"
class 0
